Known pIC50 of a selection of compounds
Molecular target: canine TRPM8 (Canis lupus familiaris)
Construct: expressed in transfected cells
Sequence (Q1A7N1 1-1104): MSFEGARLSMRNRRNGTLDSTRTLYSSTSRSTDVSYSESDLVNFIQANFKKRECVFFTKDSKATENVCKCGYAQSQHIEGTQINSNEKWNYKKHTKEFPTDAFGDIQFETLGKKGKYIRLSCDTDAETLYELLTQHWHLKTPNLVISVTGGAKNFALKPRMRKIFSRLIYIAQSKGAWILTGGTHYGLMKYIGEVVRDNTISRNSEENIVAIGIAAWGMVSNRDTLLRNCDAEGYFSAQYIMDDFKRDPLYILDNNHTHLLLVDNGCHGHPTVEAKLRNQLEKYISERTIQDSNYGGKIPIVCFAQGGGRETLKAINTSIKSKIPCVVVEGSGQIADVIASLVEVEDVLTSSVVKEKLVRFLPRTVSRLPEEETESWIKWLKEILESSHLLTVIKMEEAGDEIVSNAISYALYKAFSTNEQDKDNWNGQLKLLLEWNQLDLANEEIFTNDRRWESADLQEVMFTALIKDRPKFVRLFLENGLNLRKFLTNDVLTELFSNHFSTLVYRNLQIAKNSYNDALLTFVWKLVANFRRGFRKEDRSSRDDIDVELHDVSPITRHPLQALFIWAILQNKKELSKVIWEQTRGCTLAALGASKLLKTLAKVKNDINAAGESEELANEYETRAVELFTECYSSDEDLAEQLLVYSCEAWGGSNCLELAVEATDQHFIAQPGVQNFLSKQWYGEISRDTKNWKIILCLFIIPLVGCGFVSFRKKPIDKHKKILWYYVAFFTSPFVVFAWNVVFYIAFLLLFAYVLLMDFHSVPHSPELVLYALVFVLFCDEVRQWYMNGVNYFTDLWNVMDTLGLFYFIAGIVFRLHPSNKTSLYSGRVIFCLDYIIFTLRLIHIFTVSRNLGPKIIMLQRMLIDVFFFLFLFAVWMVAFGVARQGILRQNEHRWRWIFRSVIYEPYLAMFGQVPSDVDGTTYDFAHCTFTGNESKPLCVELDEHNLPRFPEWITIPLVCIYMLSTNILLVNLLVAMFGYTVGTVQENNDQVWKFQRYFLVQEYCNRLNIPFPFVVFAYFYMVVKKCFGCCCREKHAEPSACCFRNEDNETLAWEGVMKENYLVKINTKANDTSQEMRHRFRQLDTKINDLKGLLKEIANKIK
Test: TRPM8 patch clamp assay (whole-cell, HEK293 cells)
Assay type: cell-based
Settings: HEK293 cells stably transfected with canine TRPM8, 100 μM menthol, 22° C.
pIC50: −log10 of the molar value.
reported-metric: pIC50

[[record]]
compound = "CCOP(=O)(OCC)C(Cc1ccc(F)cc1)c1sc2ccccc2c1Br (centres unmarked) [Cpd 238]"
reported_metric = "pIC50"
recorded_measurement = 9.28

[[record]]
compound = "CCOP(=O)(OCC)C(Cc1ccc(OC(F)(F)F)cc1)c1sc2ccccc2c1Br (centres unmarked) [Cpd 155]"
reported_metric = "pIC50"
recorded_measurement = 7.90

